Please go through the items and note down their melting point.

In: Identify measured melting point associated with COc1ccc(C2CC(c3ccc(Cl)cc3Cl)=NN2c2nc(C)c(N=Nc3ccc(Cl)cc3)s2)cc1OC (stereo not shown) [Compound 13f]
Out: 190 to 191 °C

In: Report measured melting point; entry is COc1ccc(C2CC(c3ccc(Cl)cc3Cl)=NN2c2nc(C)c(N=Nc3ccc(C)cc3)s2)cc1OC (stereo not shown) [Compound 13e]
Out: 176 to 177 °C

In: Specify melting point for COc1ccc(C2CC(c3ccc(Cl)cc3Cl)=NN2c2nc(C)c(C(C)=O)s2)cc1 (stereo not shown) [Compound 10a] and stop.
Out: 205 to 207 °C

In: Find the measured melting point of COc1ccc(C2CC(c3ccc(Cl)cc3Cl)=NN2c2nc(C)c(N=Nc3ccc(Cl)cc3)s2)cc1 (stereo not shown) [Compound 13c] and report it.
Out: 170 to 171 °C

* * *

pIC50: −log10 of the molar value.
The following compounds have recorded pIC50 on ROCK1 (Homo sapiens).
Sequence (Q13464 whole entry): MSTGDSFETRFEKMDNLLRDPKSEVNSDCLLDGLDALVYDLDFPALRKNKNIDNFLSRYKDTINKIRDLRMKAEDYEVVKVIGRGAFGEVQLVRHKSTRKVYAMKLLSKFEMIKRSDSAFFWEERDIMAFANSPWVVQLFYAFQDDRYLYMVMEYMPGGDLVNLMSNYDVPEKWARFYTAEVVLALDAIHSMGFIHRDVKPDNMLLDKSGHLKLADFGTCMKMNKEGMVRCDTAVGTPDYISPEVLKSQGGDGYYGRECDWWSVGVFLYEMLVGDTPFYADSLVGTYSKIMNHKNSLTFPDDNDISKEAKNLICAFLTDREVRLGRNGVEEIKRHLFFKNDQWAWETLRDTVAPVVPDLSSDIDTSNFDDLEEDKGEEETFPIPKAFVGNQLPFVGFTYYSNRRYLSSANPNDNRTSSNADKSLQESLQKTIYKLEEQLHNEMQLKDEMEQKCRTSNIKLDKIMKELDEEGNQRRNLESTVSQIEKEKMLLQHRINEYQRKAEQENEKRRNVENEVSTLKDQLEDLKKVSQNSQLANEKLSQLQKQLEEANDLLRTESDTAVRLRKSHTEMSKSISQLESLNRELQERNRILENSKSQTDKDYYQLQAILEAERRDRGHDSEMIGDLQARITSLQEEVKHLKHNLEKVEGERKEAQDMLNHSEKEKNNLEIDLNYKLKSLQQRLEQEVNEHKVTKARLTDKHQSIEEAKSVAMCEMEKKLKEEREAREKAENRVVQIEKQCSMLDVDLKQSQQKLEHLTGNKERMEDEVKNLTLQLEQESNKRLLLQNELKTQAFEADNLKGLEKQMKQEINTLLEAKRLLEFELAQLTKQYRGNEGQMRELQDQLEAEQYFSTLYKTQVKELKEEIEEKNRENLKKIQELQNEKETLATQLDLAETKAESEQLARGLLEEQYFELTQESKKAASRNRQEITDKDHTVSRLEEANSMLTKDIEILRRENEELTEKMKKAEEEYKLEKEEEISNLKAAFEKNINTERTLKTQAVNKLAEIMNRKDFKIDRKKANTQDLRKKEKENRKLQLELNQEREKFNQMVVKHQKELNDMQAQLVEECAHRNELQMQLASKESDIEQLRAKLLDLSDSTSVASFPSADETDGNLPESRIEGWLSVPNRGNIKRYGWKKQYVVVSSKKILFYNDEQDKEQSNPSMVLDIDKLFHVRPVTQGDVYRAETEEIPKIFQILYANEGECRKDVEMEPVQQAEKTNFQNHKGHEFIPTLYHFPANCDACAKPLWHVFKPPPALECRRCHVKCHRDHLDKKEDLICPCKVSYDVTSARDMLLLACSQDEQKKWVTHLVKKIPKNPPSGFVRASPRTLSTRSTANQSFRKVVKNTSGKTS

In: Recall and state the measured pIC50 for COc1ccc(C2CC(c3ccc(Cl)cc3Cl)=NN2c2nc(C)c(C(=O)Nc3ccccc3)s2)cc1OC (centres unmarked) [Compound 10d] .
Out: < 5.70

In: Tell us which pIC50 value is on record for CCOC(=O)c1sc(N2N=C(c3ccc(Cl)cc3Cl)CC2c2ccc(OC)cc2)nc1C (centres unmarked) [Compound 10b]
Out: < 5.70

* * *

experimental_endpoint: melting point

In: // Input: COc1ccc(C2CC(c3ccc(Cl)cc3Cl)=NN2c2nc(-c3ccc(Cl)cc3)cs2)cc1 (stereo not shown) . Output its melting point only.
Out: 140 to 141 °C

In: Complete the entry with melting point for COc1ccc(C2CC(c3ccc(Cl)cc3Cl)=NN2c2nc(C)c(C(=O)Nc3ccccc3)s2)cc1 (stereo not shown) [Compound 10c]
Out: 195 to 197 °C

In: Report melting point for COc1ccc(C2CC(c3ccc(Cl)cc3Cl)=NN2c2nc(C)c(N=Nc3ccc(C)cc3)s2)cc1 (stereo not shown) [Compound 13b]
Out: 170 to 171 °C

In: Return melting point for the following molecule: COc1ccc(C2CC(c3ccc(Cl)cc3Cl)=NN2c2nc(C)c(N=Nc3ccccc3)s2)cc1OC (stereo not shown) [Compound 13d]
Out: 187 to 188 °C

* * *

# Test system: HCT116 colon cancer cells
# test_details: Anti-proliferative MTT assay
# Type: cell-based
# measurement_setup: Homo sapiens, HCT-116, 24 h, read-out: % Growth inhibition ± SEM HCT116
experimental_endpoint: inhibition at 10 µM (%)
I only need the number, in %, no unit after it.

In: Please give the documented inhibition at 10 µM of CCOC(=O)c1sc(N2N=C(c3ccc(Cl)cc3Cl)CC2c2ccc(OC)cc2)nc1C (stereo not shown) [Compound 10b]
Out: 37.7

In: Read off the recorded inhibition at 10 µM for COc1ccc(C2CC(c3ccc(Cl)cc3Cl)=NN2c2nc(C)c(C(C)=O)s2)cc1 (stereo not shown) [Compound 10a]
Out: 19

In: Identify measured inhibition at 10 µM corresponding to COc1ccc(C2CC(c3ccc(Cl)cc3Cl)=NN2c2nc(C)c(C(=O)Nc3ccccc3)s2)cc1OC (stereo not shown) [Compound 10d]
Out: 56.5

In: Give inhibition at 10 µM for the following compound: COc1ccc(C2CC(c3ccc(Cl)cc3Cl)=NN2c2nc(-c3ccccc3)cs2)cc1OC (stereo not shown)
Out: 4.9

* * *

# tgt: EGFR (Homo sapiens, UniProt P00533)
# Sequence (P00533 25-1210): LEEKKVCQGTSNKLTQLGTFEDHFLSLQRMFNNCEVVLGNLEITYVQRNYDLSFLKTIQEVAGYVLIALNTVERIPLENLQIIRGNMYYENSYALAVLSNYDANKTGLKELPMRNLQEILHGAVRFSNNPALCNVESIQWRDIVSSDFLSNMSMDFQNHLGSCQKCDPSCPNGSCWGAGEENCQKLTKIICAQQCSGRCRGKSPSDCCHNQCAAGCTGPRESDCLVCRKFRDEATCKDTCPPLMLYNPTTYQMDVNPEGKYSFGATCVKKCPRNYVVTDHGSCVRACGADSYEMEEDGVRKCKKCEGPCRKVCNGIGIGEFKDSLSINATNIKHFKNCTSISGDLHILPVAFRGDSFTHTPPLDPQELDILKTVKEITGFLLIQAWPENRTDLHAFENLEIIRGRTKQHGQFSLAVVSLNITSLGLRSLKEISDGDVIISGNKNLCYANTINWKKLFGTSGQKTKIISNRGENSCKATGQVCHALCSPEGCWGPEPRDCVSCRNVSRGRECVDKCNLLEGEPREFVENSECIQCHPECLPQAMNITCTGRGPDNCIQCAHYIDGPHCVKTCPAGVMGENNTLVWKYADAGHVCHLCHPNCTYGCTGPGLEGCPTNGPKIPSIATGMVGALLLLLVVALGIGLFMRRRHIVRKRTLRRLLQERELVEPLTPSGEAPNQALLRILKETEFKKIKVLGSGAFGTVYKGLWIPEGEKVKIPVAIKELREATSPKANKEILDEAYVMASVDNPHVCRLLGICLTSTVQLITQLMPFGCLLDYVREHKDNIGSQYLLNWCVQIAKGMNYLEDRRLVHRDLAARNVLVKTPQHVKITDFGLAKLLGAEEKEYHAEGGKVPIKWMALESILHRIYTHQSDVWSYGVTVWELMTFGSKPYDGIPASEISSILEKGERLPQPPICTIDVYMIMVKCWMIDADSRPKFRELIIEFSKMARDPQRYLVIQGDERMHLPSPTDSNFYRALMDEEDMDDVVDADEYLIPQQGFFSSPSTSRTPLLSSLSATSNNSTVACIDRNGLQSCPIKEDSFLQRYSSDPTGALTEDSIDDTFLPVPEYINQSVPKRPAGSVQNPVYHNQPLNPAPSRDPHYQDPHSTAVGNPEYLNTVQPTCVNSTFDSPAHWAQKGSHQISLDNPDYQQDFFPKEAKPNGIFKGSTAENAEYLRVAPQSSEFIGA
# test_details: EGFR kinase assay (PGT-coated 96-well plates)
# Format: biochemical
# measurement_setup: read-out: IC50 (nM) ± SEM EGFR
Consider the following compounds; for each one, report its log10 of IC50.
Scale: decimal log of IC50, IC50 in nM.

In: Fill in: log10 of IC50 on EGFR (Homo sapiens, UniProt P00533), entry COc1ccc(C2CC(c3ccc(Cl)cc3Cl)=NN2c2nc(C)c(N=Nc3ccc(Cl)cc3)s2)cc1 (stereo not drawn) [Compound 13c]
Out: 2.13

In: Provide log10 of IC50, tested on EGFR (Homo sapiens, UniProt P00533), for COc1ccc(C2CC(c3ccc(Cl)cc3Cl)=NN2c2nc(C)c(N=Nc3ccccc3)s2)cc1 (stereo not drawn) [Compound 13a] .
Out: 2.99

In: // output log10 of IC50; input COc1ccc(C2CC(c3ccc(Cl)cc3Cl)=NN2c2nc(C)c(N=Nc3ccccc3)s2)cc1OC (stereo not drawn) [Compound 13d] ; system EGFR (Homo sapiens, UniProt P00533)
Out: 1.97

In: Supply log10 of IC50 measured with EGFR (Homo sapiens, UniProt P00533) for COc1ccc(C2CC(c3ccc(Cl)cc3Cl)=NN2c2nc(C)c(C(=O)Nc3ccccc3)s2)cc1OC (stereo not drawn) [Compound 10d] .
Out: 1.51

In: Write down measured log10 of IC50 (EGFR (Homo sapiens, UniProt P00533)) for this compound. COc1ccc(C2CC(c3ccc(Cl)cc3Cl)=NN2c2nc(C)c(N=Nc3ccc(C)cc3)s2)cc1OC (stereo not drawn) [Compound 13e]
Out: 1.83

In: Check EGFR (Homo sapiens, UniProt P00533) data and give log10 of IC50 for COc1ccc(C2CC(c3ccc(Cl)cc3Cl)=NN2c2nc(-c3ccc(Cl)cc3)cs2)cc1OC (stereo not drawn) .
Out: 2.12
